B1: HHH_rd2_0155 (parent)
chain: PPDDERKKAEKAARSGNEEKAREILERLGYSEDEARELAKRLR

Variants of: B1
method description: folding stability dG (cDNA display proteolysis); higher = more stable
details: PBS, room temperature
Kindly state folding stability dG for each of the entries shown.
Numbers only, in kcal/mol.

The examples below pair each entry with its known result.
mutation descriptor: N17K
readout label: folding stability dG
numeric result: 1.42

mutation descriptor: D3L
readout label: folding stability dG
numeric result: 2.06

mutation descriptor: R27Q
readout label: folding stability dG
numeric result: 1.89

mutation descriptor: D3K
readout label: folding stability dG
numeric result: 1.73

mutation descriptor: D33M
readout label: folding stability dG
numeric result: 1.8

For each of the variants below, state folding stability dG.
1. A13H
2. G16N
3. R14L
4. R27G
5. E18A
6. E18G
7. A39P

1
1.23
1.79
1.89
1.57
1.19
-0.361
